Would you kindly list koff for each of these binders?
- Study Target: T1, recombinant human ROR1-His (Sino Biological, 13968-H08H) (human, UniProt Q01973 30-406)
- T1 construct: extracellular domain; Bought protein; also called ROR1-HIS protein; not shown: His tag
- T1 sequence (Q01973 30-406): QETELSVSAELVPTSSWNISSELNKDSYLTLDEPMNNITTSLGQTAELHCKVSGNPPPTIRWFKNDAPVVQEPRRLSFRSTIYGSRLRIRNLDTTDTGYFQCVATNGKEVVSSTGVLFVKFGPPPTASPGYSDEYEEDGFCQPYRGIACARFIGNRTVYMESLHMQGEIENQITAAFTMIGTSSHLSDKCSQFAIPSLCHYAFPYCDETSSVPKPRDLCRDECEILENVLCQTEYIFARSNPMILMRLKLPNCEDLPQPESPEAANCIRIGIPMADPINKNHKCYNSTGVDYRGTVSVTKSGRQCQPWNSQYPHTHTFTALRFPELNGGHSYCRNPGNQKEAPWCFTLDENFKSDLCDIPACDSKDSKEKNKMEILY
- Test Protocol: BLI (Octet), ROR1-His on Anti-Penta-His or AR2G biosensor, IgG 30 to 0.021 nM, 1:1 fit
Just the number in s⁻¹, nothing appended.

Look up koff for this binder: anti-ROR1 IgG antibody AB4 (antibody, V domains shown, Full IgG form (human IgG1 constant region, lambda light chain), expressed in CHO-S cells) VH: EVQLLESGGGLVQPGGSLRLSCAASGFTFSSYDMSWVRQAPGKGLEWVSWISPDSGSIYYADSVKGRFTISRDNSKNTLYLQMNSLRAEDTAVYYCARPTGRFDYWGQGTLVTVSS VL: QSVLTQPPSASGTPGQRVTISCSGSSSNIGNNNVNWYQQLPGTAPKLLIYYDNKRPSGVPDRFSGSKSGTSASLAISGLRSEDEADYYCGTWDASLSGYVFGGGTKLTVLG 0.000116

Request the reported koff associated with anti-ROR1 IgG antibody D2B12 (antibody, V domains shown, Full IgG form (human IgG1 constant region, lambda light chain), expressed in CHO-S cells) VH: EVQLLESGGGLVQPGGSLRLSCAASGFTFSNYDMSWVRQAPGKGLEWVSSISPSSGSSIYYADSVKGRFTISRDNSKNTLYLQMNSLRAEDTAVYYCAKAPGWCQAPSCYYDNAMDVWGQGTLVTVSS VL: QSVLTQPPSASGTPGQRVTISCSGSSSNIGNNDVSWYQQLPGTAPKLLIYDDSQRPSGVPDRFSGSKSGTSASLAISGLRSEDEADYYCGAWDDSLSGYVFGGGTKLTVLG 0.000361

Could you share which koff value was measured for anti-ROR1 IgG antibody BA6 (antibody, V domains shown, Full IgG form (human IgG1 constant region, lambda light chain), expressed in CHO-S cells) VH: EVQLLESGGGLVQPGGSLRLSCAASGFTFSNYDMSWVRQAPGKGLEWVSAIYHSGSSKYYADSVKGRFTISRDNSKNTLYLQMNSLRAEDTAVYYCARGGNGAWDTGFDYWGQGTLVTVSS VL: QSVLTQPPSASGTPGQRVTISCSGSSSNIGSNDVSWYQQLPGTAPKLLIYYDNNRPSGVPDRFSGSKSGTSASLAISGLRSEDEADYYCGAWDDSLSGYVFGGGTKLTVLG ? 0.000231
